# Phage binding ELISA signal, Anti-PSMA Fab values compiled below
target: T1, PSMA Fab (006 PSMA Fab); test: clonal phage ELISA on biotinylated PSMA Fab captured on neutravidin, anti-M13-HRP detection;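 note: crude clonal phage supernatants added to wells preincubated with PSMA antigen in blocking buffer or with blocking buffer alone, brief binding period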
T1 construct: also called Anti-PSMA Fab; anti-PSMA Fab
Where no end group is shown, it is not given here.
Reply briefly: the number, and no unit.

Use these answered entries as a reference point.
• DMPLCIPAWMCAGF (peptide, not shown: large carriers, cysteine pairing not given here; also: fused to phage pIII, junction sequence not given here, Clonal phage of the Peptide-180 library, tested as crude supernatant) [Phage-3194] = 1.99
• EVVMCRPLWMCSGF (peptide, not shown: large carriers, Clonal phage of the Peptide-180 library, tested as crude supernatant) [Phage-3192] = 2
• VEVRCVPAWMCTGF (peptide, not shown: large carriers, Clonal phage of the Peptide-180 library, tested as crude supernatant) [Phage-3196] = 1.99
• QHWQCVPRWMCDGF (peptide, not shown: large carriers, Clonal phage of the Peptide-180 library, tested as crude supernatant) [Phage-3191] = 2
• AAPMCIPAWMCHGF (peptide, not shown: large carriers, Clonal phage of the Peptide-180 library, tested as crude supernatant) [Phage-3187] = 2

Q. Name the reported Phage binding ELISA signal, Anti-PSMA Fab value associated with the binder GEAVCIPRWMCDGF (peptide, not shown: large carriers, Clonal phage of the Peptide-180 library, tested as crude supernatant) [Phage-3193]
A. 1.99

Q. Name the reported Phage binding ELISA signal, Anti-PSMA Fab value associated with the binder HEHFCRPLWMCTGL (peptide, not shown: large carriers, Clonal phage of the Peptide-180 library, tested as crude supernatant) [Phage-3195]
A. 1.99

Q. Name the reported Phage binding ELISA signal, Anti-PSMA Fab value associated with the binder ADLRCVPEWMCMGI (peptide, not shown: large carriers, Clonal phage of the Peptide-180 library, tested as crude supernatant) [Phage-3190]
A. 2

Q. Name the reported Phage binding ELISA signal, Anti-PSMA Fab value associated with the binder FDRVCKPEWMCNGL (peptide, not shown: large carriers, Clonal phage of the Peptide-180 library, tested as crude supernatant) [Phage-3198]
A. 1.99

Q. Name the reported Phage binding ELISA signal, Anti-PSMA Fab value associated with the binder VSELCRPAWMCHGF (peptide, not shown: large carriers, Clonal phage of the Peptide-180 library, tested as crude supernatant) [Phage-3186]
A. 2

Q. Name the reported Phage binding ELISA signal, Anti-PSMA Fab value associated with the binder LSPMCVPQWMCSGF (peptide, not shown: large carriers, Clonal phage of the Peptide-180 library, tested as crude supernatant) [Phage-3197]
A. 1.99

Q. Name the reported Phage binding ELISA signal, Anti-PSMA Fab value associated with the binder IEKWCFPMWMCEGF (peptide, not shown: large carriers, cysteine pairing not given here; also: fused to phage pIII, junction sequence not given here, Clonal phage of the Peptide-180 library, tested as crude supernatant) [Phage-3185]
A. 2.01

Q. Name the reported Phage binding ELISA signal, Anti-PSMA Fab value associated with the binder LEALCVPRWMCEGF (peptide, not shown: large carriers, Clonal phage of the Peptide-180 library, tested as crude supernatant) [Phage-3189]
A. 2

Q. Name the reported Phage binding ELISA signal, Anti-PSMA Fab value associated with the binder DMRVCKPEWMCTGL (peptide, not shown: large carriers, Clonal phage of the Peptide-180 library, tested as crude supernatant) [Phage-3188]
A. 2

Reference source: patent US20260242478A1
